Quick reference for kd among some compounds
Test target: NbALFA
Protocol description: SPR measurements of NbALFA binding (Biacore T200, multi cycle kinetics, 1:1 binding model)
Stated conditions: 25° C., HBS-EP+ buffer, biotinylated NbALFA captured
Bridge positions count the residues as written; N and C are the ends. Peptide text beside a SMILES is read from it.

| Compound | kd, s⁻¹ |
| --- | --- |
| CC(=O)N[C@@H](CO)C(=O)N[C@@H](CCCNC(=N)N)C(=O)N[C@@H](CC(C)C)C(=O)N[C@@H](CCC(=O)O)C(=O)N[C@H]1CC(=O)NCCCC[C@@H](C(=O)N[C@@H](CCCNC(=N)N)C(=O)N[C@@H](CC(C)C)C(=O)N[C@H](C(=O)N[C@@H](CCC(=O)O)C(N)=O)[C@@H](C)O)NC(=O)[C@H](CCCNC(=N)N)NC(=O)[C@H](CC(C)C)NC(=O)[C@H](CCC(=O)O)NC1=O [SD15196] (Ac-SRLEDELRKRLTE-NH2; lactam 5-9) | 0.0079 |
| CC(=O)N[C@@H](CO)C(=O)N[C@@H](CCCNC(=N)N)C(=O)N[C@@H](CC(C)C)C(=O)N[C@@H](CCC(=O)O)C(=O)N[C@H]1CCC(=O)NCCCC[C@@H](C(=O)N[C@@H](CCCNC(=N)N)C(=O)N[C@@H](CC(C)C)C(=O)N[C@H](C(=O)N[C@@H](CCC(=O)O)C(N)=O)[C@@H](C)O)NC(=O)[C@H](CCCNC(=N)N)NC(=O)[C@H](CC(C)C)NC(=O)[C@H](CCC(=O)O)NC1=O [SD15194] (Ac-SRLEEELRKRLTE-NH2; lactam 5-9) | 0.00067 |
| CC(=O)N1CCC[C@H]1C(=O)N[C@@H](CO)C(=O)N[C@@H](CCCNC(=N)N)C(=O)N[C@@H](CC(C)C)C(=O)N[C@@H](CCC(=O)O)C(=O)N[C@H]1CCC(=O)NCCCC[C@@H](C(=O)N[C@@H](CCCNC(=N)N)C(=O)N[C@@H](CC(C)C)C(=O)N[C@H](C(=O)N[C@@H](CCC(=O)O)C(N)=O)[C@@H](C)O)NC(=O)[C@H](CCCNC(=N)N)NC(=O)[C@H](CC(C)C)NC(=O)[C@H](CCC(=O)O)NC1=O [SD15341] (Ac-PSRLEEELRKRLTE-NH2; lactam 6-10) | 0.000361 |
| CC(=O)N1CCC[C@H]1C(=O)N[C@@H](CO)C(=O)N[C@@H](CCCNC(=N)N)C(=O)N[C@@H](CC(C)C)C(=O)N[C@H]1CCC(=O)NCCCC[C@@H](C(=O)N[C@@H](CCCNC(=N)N)C(=O)N[C@@H](CCCNC(=N)N)C(=O)N[C@@H](CC(C)C)C(=O)N[C@H](C(=O)N[C@@H](CCC(=O)O)C(N)=O)[C@@H](C)O)NC(=O)[C@H](CC(C)C)NC(=O)[C@H](CCC(=O)O)NC(=O)[C@H](CCC(=O)O)NC1=O [SD15806] (Ac-PSRLEEELKRRLTE-NH2; lactam 5-9) | 4.94 |
